EXPERIMENTAL_SYSTEM: ovine COX-1 (Ovis aries, UniProt P05979)
Sequence (P05979 25-600): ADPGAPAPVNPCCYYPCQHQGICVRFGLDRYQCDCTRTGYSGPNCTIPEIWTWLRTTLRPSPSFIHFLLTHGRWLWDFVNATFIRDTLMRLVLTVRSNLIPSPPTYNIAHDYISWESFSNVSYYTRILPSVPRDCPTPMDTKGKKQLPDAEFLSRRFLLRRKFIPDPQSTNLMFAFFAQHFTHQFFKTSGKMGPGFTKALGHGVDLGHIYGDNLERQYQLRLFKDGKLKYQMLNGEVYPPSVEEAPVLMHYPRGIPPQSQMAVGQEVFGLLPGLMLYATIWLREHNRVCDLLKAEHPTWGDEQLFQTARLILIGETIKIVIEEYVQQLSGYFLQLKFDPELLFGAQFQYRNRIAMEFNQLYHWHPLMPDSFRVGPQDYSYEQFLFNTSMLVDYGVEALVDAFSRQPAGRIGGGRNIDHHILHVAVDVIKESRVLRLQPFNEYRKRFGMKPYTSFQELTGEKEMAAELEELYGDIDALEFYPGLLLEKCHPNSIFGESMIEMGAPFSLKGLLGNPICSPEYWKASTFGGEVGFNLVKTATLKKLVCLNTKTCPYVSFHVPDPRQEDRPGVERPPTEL
ASSAY_OVERVIEW: COX oxygen electrode assay, COX-1
Assay type: biochemical
ASSAY_SETUP: IC50 COX-1 (approximate), AA 10 μM as substrate; DMSO as vehicle
MEASUREMENT_KIND: IC50

Provide IC50 value for the following compound: Cc1cccnc1NC(=O)C(C)c1ccc(CC(C)C)cc1 (stereo not shown)
~240 µM

* * *

EXPERIMENTAL_SYSTEM: human recombinant COX-2 (Homo sapiens, UniProt P35354)
Sequence (P35354 18-604): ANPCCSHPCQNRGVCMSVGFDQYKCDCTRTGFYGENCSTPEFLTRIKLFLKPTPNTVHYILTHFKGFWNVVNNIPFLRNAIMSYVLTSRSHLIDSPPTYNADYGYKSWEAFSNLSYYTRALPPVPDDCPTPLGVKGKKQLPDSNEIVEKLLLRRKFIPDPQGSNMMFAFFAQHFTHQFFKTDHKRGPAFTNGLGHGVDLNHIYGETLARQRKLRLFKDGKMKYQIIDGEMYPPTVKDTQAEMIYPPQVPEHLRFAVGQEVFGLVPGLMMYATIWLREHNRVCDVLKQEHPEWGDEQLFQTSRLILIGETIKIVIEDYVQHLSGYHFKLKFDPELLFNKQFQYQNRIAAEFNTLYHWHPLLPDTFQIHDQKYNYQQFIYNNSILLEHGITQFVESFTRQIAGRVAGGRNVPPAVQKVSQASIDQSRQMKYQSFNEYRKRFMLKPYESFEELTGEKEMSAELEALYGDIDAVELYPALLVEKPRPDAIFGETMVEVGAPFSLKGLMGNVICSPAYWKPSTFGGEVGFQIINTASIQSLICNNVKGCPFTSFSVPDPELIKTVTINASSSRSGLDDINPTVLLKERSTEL
ASSAY_OVERVIEW: COX oxygen electrode assay, COX-2
pIC50: −log10 of the molar value.
MEASUREMENT_KIND: pIC50

>>> result("Cc1cccnc1NC(=O)CNC(=O)C(C)c1ccc(CC(C)C)cc1 (centres unmarked) [Compound 9]")
"~5.00"

Would you kindly look at the next entry?
Fill: pIC50 (human recombinant COX-2 (Homo sapiens, UniProt P35354)) for this molecule Cc1cccnc1NC(=O)C(C)c1ccc(CC(C)C)cc1 (centres unmarked) [Compound 2]
~4.72

* * *

EXPERIMENTAL_SYSTEM: FAAH (Rattus norvegicus, UniProt P97612)
Sequence (P97612 whole entry): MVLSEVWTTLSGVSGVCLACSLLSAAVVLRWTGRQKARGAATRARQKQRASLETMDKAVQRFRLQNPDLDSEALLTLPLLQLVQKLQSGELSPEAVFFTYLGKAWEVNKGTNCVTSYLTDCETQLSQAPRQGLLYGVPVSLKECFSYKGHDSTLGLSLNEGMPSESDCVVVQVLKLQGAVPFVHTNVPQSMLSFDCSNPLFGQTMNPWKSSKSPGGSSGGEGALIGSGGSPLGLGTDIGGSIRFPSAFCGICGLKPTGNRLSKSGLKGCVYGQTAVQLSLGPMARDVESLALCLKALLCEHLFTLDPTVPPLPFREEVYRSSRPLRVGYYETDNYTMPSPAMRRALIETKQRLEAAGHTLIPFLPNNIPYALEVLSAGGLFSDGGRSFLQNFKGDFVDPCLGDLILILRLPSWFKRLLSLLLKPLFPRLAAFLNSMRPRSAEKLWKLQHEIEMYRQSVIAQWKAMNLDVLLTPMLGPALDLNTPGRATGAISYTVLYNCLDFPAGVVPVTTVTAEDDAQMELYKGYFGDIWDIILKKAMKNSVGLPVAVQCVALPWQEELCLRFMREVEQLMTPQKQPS
ASSAY_OVERVIEW: FAAH assay: hydrolysis of [3H]AEA by rat brain homogenates
Format: biochemical
ASSAY_SETUP: solvent DMSO
MEASUREMENT_KIND: Max inhibition % (%)
Numbers only, in %.

>>> recorded_number("Cc1cccnc1NC(=O)C(C)c1ccc(CC(C)C)cc1 (stereo not shown)")
100

Give Max inhibition % for each of the items listed below.
1. Cc1cccnc1NC(=O)CCNC(=O)C(C)c1ccc(CC(C)C)cc1 (stereo not shown)
2. CC(C)Cc1ccc(C(C)C(=O)NCC(=O)NCc2ccccn2)cc1 (stereo not shown)
3. CC(C)Cc1ccc(C(C)C(=O)NCC(=O)NCc2cccnc2)cc1 (stereo not shown)

1. 90
2. 100
3. 81
